tgt: acetylcholinesterase (Homo sapiens)
Construct: purchased Sigma
protocol: biochemical
result_type: IC50
Please state the number and follow it with the unit.

// recorded IC50 for COc1ccc2c3c1O[C@H]1C[C@@H](OC(=O)CNC(=O)C(C)Nc4ccc(Cl)c(Cl)c4)C=C[C@@]31CCN(C)C2 (some centres unmarked) : 3.98 µM

Just so you know, measured IC50 for COc1ccc2c3c1O[C@H]1C[C@@H](O)C=C[C@@]31CCN(C(=O)[C@H](Cc1ccccc1)NC(=O)C(C)Nc1ccc(Cl)c(Cl)c1)C2 (some centres unmarked) came out at 12.5 µM

---

List of pIC50 values.
tgt: butyrylcholinesterase (Homo sapiens)
Construct: purchased Sigma
Sequence (P06276 29-602): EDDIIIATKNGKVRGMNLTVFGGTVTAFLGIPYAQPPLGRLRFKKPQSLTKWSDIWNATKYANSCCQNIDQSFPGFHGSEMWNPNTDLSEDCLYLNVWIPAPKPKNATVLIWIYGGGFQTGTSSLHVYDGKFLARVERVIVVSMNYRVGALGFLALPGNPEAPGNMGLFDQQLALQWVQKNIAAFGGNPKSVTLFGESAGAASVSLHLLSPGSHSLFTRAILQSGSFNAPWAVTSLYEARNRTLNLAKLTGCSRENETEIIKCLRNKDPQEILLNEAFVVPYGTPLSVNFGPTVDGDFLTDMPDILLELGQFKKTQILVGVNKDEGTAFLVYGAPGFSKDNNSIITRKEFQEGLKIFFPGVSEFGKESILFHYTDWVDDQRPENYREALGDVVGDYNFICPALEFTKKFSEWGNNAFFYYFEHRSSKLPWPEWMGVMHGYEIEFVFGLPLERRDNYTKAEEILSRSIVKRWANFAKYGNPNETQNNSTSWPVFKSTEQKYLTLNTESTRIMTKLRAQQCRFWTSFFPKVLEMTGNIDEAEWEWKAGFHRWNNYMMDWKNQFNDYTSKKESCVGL
protocol: biochemical
# pIC50 is unitless: minus log10 of the molar concentration; print number only

COc1ccc2c3c1O[C@H]1C[C@@H](O)C=C[C@@]31CCN(C(=O)[C@H](Cc1ccccc1)NC(=O)C(C)Nc1ccc(Cl)c(Cl)c1)C2 (some centres unmarked) [Compound 5] | 6.35

Note: attention shifts to another entry.
# lookup: COc1ccc2c3c1O[C@H]1C[C@@H](OC(=O)CNC(=O)C(C)Nc4ccc(Cl)c(Cl)c4)C=C[C@@]31CCN(C)C2 (some centres unmarked) [Compound 1] on butyrylcholinesterase (Homo sapiens), pIC50 = 4.63

---

tgt: butyrylcholinesterase (Homo sapiens)
Construct: purchased Sigma
protocol: biochemical
applied_conditions: 0,1 M sodium phosphate buffer pH 8,0, 25 °C, 30 min preincubation, butyrylcholine iodide substrate; read-out: IC50
result_type: pIC50
Value format note: pIC50 is -log10 of concentration (mol/L); just state the number.

Below: 3 compounds and their reported pIC50.
COc1ccc2c3c1OC1CC(OC(=O)CNC(=O)C(NC(=O)C(C)Nc4ccc(Cl)c(Cl)c4)C(C)C)C=CC31CCN(C)C2 (stereo not shown) | 6.47
COc1ccc2c3c1OC1CC(OC(=O)CNC(=O)C(CC(C)C)NC(=O)C(C)Nc4ccc(Cl)c(Cl)c4)C=CC31CCN(C)C2 (stereo not shown) | 6.21
COc1ccc2c3c1OC1CC(OC(=O)CNC(=O)C(Cc4ccccc4)NC(=O)C(C)Nc4ccc(Cl)c(Cl)c4)C=CC31CCN(C)C2 (stereo not shown) | 5.00

Okay, now this compound:
// pIC50 lookup, compound = COc1ccc2c3c1OC1CC(O)C=CC31CCN(C(=O)C(NC(=O)C(C)Nc1ccc(Cl)c(Cl)c1)C(C)C)C2 (stereo not shown) , result: 6.22

---

tgt: acetylcholinesterase (Homo sapiens, UniProt P22303)
Construct: purchased Sigma
Sequence (P22303 32-614, species assumed): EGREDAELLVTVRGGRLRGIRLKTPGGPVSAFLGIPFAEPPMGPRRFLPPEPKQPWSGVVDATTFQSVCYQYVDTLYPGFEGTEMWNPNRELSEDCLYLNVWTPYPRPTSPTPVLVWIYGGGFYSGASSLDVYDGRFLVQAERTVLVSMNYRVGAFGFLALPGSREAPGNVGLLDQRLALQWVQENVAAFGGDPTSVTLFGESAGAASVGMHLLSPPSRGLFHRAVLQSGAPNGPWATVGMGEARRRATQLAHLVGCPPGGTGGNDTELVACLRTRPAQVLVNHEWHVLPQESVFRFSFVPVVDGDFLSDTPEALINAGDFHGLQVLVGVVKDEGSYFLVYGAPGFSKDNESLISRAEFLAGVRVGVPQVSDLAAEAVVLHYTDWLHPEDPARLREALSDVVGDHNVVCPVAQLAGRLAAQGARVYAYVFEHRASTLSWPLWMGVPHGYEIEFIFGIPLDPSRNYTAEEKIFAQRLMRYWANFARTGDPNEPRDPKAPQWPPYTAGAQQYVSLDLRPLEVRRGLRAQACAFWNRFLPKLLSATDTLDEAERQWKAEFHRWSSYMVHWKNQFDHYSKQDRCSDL
protocol: biochemical
applied_conditions: 0,1 M sodium phosphate buffer pH 8,0, 25 °C, 30 min preincubation, acetylcholine iodide substrate; read-out: IC50
Examples of compounds with documented IC50 follow.
Express the result in µM but write the number alone.

Examples with their reported IC50 follow.
COc1ccc2c3c1OC1CC(OC(=O)CNC(=O)C(Cc4ccccc4)NC(=O)C(C)Nc4ccc(Cl)c(Cl)c4)C=CC31CCN(C)C2 (stereo not shown) | 3.76
COc1ccc2c3c1OC1CC(O)C=CC31CCN(C(=O)C(NC(=O)C(C)Nc1ccc(Cl)c(Cl)c1)C(C)C)C2 (stereo not shown) | 31.2
COc1ccc2c3c1OC1CC(OC(=O)CNC(=O)C(NC(=O)C(C)Nc4ccc(Cl)c(Cl)c4)C(C)C)C=CC31CCN(C)C2 (stereo not shown) | 8.33

# next compound below
response.value for COc1ccc2c3c1OC1CC(OC(=O)CNC(=O)C(CC(C)C)NC(=O)C(C)Nc4ccc(Cl)c(Cl)c4)C=CC31CCN(C)C2 (stereo not shown) (field: IC50) = 3.35
